All values here come from patent US5256671A.

Biological target: human neurokinin-1-receptor (NK1R) (Homo sapiens)
Construct: expressed in transfected cells
Sequence (P25103 whole entry): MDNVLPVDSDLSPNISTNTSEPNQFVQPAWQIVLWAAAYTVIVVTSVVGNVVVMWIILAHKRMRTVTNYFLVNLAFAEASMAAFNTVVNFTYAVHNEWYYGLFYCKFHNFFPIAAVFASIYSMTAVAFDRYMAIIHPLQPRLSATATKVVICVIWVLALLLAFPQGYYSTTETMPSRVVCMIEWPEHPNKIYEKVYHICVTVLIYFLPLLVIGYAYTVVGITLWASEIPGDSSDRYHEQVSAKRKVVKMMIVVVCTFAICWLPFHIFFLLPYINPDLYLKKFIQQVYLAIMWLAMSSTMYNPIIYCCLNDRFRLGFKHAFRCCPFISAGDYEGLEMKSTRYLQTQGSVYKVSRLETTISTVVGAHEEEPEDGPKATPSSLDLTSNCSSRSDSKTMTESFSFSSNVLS
Assay: Substance P antagonism assay: 125I-substance P binding to human NK1R expressed in COS or CHO cells
Conditions: 125I-SP displacement, read-out: IC50 @ NK1R
pIC50: −log10 of the molar value.
Lab note: anything with pIC50 at or over 7 counts as Satisfied; the rest go in Not satisfied.

Record excerpt, results attached:
Prompt: Exam item: decide whether the reported pIC50 for OC(C=C1C2CCN(CC2)C1C(c1ccccc1)c1ccccc1)c1ccccc1 (single isomer, unassigned) [4 (ISOMER B)] is at least 7.
Response: Not satisfied

Prompt: Exam item: decide whether the reported pIC50 for FC(C=C1C2CCN(CC2)C1C(c1ccccc1)c1ccccc1)c1cc(C(F)(F)F)cc(C(F)(F)F)c1 (single isomer, unassigned; isomer b) [Example 11] is at least 7.
Response: Satisfied

Shifting focus to the compound that follows.
Prompt: Exam item: decide whether the reported pIC50 for OC(C=C1C2CCN(CC2)C1Cc1ccccc1)c1cc(C(F)(F)F)cc(C(F)(F)F)c1 (single isomer, unassigned) [15 (DIASTEREOMER B)] is at least 7.
Response: Satisfied
